- systemName: CD3 (antigen of the binding affinity table of Example 1) (UniProt P07766)
- experimentDescription: kinetic fit with two-state parameters; method not given
observedProperty: kon (M⁻¹ s⁻¹)

binder="H3L3 (antibody, V domains shown) VH: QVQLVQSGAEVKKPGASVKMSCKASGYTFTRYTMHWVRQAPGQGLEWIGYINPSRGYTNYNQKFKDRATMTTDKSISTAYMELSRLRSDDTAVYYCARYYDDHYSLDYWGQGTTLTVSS VL: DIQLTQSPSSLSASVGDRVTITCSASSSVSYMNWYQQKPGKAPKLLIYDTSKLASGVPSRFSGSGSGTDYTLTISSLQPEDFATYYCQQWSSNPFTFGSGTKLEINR" observedresult=1.19e+07
binder="H4L5 (antibody, V domains shown) VH: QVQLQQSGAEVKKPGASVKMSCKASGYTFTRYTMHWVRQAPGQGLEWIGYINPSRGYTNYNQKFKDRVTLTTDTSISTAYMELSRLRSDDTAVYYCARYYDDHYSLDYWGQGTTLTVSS VL: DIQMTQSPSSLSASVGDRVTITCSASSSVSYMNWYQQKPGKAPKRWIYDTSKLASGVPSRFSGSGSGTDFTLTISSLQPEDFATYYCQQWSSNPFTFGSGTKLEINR" observedresult=2.17e+06
binder="H3L6 (antibody, V domains shown) VH: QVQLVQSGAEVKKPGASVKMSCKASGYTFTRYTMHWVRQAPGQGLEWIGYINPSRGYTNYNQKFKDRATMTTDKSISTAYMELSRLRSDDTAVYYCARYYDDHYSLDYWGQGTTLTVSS VL: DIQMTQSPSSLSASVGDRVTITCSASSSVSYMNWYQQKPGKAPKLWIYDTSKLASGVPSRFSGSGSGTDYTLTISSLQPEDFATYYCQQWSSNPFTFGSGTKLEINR" observedresult=3.05e+06

Each recorded value in this set is attributed to patent US20230212289A1.
